- ASSAY EXPLANATION: folding enthalpy; higher = less favourable; fluorescence melt of hairpins on a sequencing array, two-state fit
- TEST SETTINGS: sodium 0.088 M
MEASURED METRIC: folding enthalpy (kcal/mol)

| SEQUENCE RECORD | NUMERIC RESULT |
| --- | --- |
| GAGCACGGAAACATGCTC (((((.(....).))))) | -35 |
| GCTTTCGAAAGAAAGC ((((((....)))))) | -42.3 |
| GACACGGGAAACCGCGTC (((.(((....))).))) | -47.8 |
| GATCGCGTGTGCGATC ((((((....)))))) | -29.3 |
| GATCGATAAGTCGATC ((((((....)))))) | -44 |
| GTCCCCCGAAAGGGCGAC (((.(((....))).))) | -21.6 |
| GCATAACGAAAGTTCTGC (((.(((....))).))) | -35.4 |
| GATCGACAGTTCGATC ((((((....)))))) | -44.4 |
| GCTGCCCCGAAAGGGAGC (((..(((....)))))) | -13.3 |
| GGCCTAGGAAACTGGGCC ((((.((....)).)))) | -47.7 |
| GGGGGAGAAATCCCCC ((((((....)))))) | -29.9 |
| GTCACGCGAAAGCGAGAC (((.(((....))).))) | -17.5 |
| GCGATCCTTCGC ((((....)))) | -24.6 |
| CGATCGGAAACGAGTTCG ((((((....)))..))) | -20.5 |
| GGCTCCGGAAACGAAGCC ((((.((....)).)))) | -40.4 |
| GCATTGGGAAACTAGTGC (((.(.(....).).))) | -19.5 |
| GTAGATGAAAATCTAC ((((((....)))))) | -29.2 |
| GATCATACCGATGATC ((((((....)))))) | -35.7 |
| GCAGGCCGAAAGGCTTGC (((.(((....))).))) | -29.2 |
| GCACACGAAAGTGTCTGC ((((((....)))..))) | -15.3 |
| GCGAGTGCTCGC ((((....)))) | -26.2 |
| GCAATGGGAAACCATTGC (((((((....))))))) | -39.2 |
| GCTAGATCGAAAGATAGC (((..(((....)))))) | -19.4 |
| GCGGCTGGAAACGGTCGC (((.(.(....).).))) | -43.2 |
| CGAGAACGGAAACGTTCG (((..(((....)))))) | -25.3 |
| CGCGGACCGCTCCGCG ((((((....)))))) | -34.1 |
